# system.name: Phospholipase A2, major isoenzyme (Sus scrofa)
# Sequence (P00592 whole entry): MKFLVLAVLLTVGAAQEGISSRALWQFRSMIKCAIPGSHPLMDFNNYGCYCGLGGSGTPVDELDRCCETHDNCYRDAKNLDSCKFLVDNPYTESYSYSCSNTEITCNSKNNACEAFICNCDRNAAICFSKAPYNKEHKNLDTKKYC
# test.description: In vitro inhibition of porcine pancreatic phospholipase A2 evaluated by monomeric substrate assay
metric.name: IC50 (µM)

For orientation, consider the following solved cases.
| molecule | result.units | quantitative.readout |
| --- | --- | --- |
| CCCCCCCCCCCCCCCC(=O)N[C@H](COP(=O)([O-])OCC[N+](C)(C)C)CC(C)C | µM | 4.5 |
| CCCCCCCCCCCCCCCC(=O)N[C@H](C)COP(=O)([O-])OCC[N+](C)(C)C | µM | 1.4 |
| CC(C)C[C@H](COP(=O)([O-])OCC[N+](C)(C)C)NC(=O)Cc1ccc2ccccc2c1 | µM | 160 |
| CCCCCCCCCCCCCCCC(=O)N[C@@H](COP(=O)(O)O)Cc1ccccc1 | µM | 5 |

1. CCCCCCCCCCCCCCCC(=O)OCC(COP(=O)(O)OCCO)NC(=O)CCCCCCCCCCCCC (stereo unspecified)
2. CCCCCCCCCCCCCCCC(=O)NCCOP(=O)([O-])OCC[N+](C)(C)C
3. CCCCCC/C=C/CC(=O)N[C@@H](COP(=O)([O-])OCC[N+](C)(C)C)CC(C)C
4. CCCCCCCCCCCCCCCC(=O)N[C@@H](COP(=O)(O)O)CC(C)C
5. CCCCCCCCCCCCCCCC(=O)N[C@@H](COP(=O)([O-])OCC[N+](C)(C)C)CC(C)C
Exercise: Output the entries ranked by IC50 from maximum down to minimum. List each label, following the requested order.
Key: 4, 3, 2, 5, 1
